Target: UniProt:P04150
Assay: Antagonist activity at glucocorticoid receptor in human A549 cells assessed as inhibition of corticoid-induced GRE-linked luciferase reporter gene activity
pIC50: −log10 of the molar value.
Reported endpoint: pIC50

a: CN(C)c1ccc([C@H]2C[C@@]3(C)[C@@H](CC[C@@]3(O)C#CC(C)(C)O)[C@@H]3OCC4=CC(=O)CCC4=C32)cc1
b: CN(C)c1ccc([C@H]2C[C@@]3(C)[C@@H](CC[C@@]3(O)C#Cc3ccccc3)[C@@H]3OCC4=CC(=O)CCC4=C32)cc1
c: CN(C)c1ccc([C@H]2C[C@@]3(C)[C@@H](CC[C@@]3(O)C#CC(C)(C)C)[C@@H]3OCC4=CC(=O)CCC4=C32)cc1
Rank order required: pIC50, descending. Write the labels in rank order as requested.
c, b, a
(c: 6.78, b: 6.52, a: 6.25)

###

Organism: Homo sapiens
Experiment: Selectivity for human progesterone receptor over human glucocorticoid receptor
Reported endpoint: Ratio IC50

CN(C)c1ccc([C@H]2C[C@@]3(C)[C@@H](CC[C@@]3(O)C#CC(F)(F)F)[C@@H]3OCC4=CC(=O)CCC4=C32)cc1 = 6
CN(C)c1ccc([C@H]2C[C@@]3(C)[C@@H](CC[C@@]3(O)C#CC3CC3)[C@@H]3OCC4=CC(=O)CCC4=C32)cc1 = 4
C#C[C@]1(O)CC[C@H]2[C@@H]3OCC4=CC(=O)CCC4=C3[C@@H](c3ccc(N(C)C)cc3)C[C@@]21C = 11

a: CC#C[C@]1(O)CC[C@H]2[C@@H]3OCC4=CC(=O)CCC4=C3[C@@H](c3ccc(N(C)C)cc3)C[C@@]21C
b: CN(C)c1ccc([C@H]2C[C@@]3(C)[C@@H](CC[C@@]3(O)C#CC(C)(C)C)[C@@H]3OCC4=CC(=O)CCC4=C32)cc1
c: CN(C)c1ccc([C@H]2C[C@@]3(C)[C@@H](CC[C@@]3(O)C#Cc3ccccc3)[C@@H]3OCC4=CC(=O)CCC4=C32)cc1
Rank entries according to their Ratio IC50, from the largest number down. Write the labels in rank order as requested.
c, a, b

###

Molecular target: Glucocorticoid receptor (Homo sapiens)
Sequence (P04150 whole entry): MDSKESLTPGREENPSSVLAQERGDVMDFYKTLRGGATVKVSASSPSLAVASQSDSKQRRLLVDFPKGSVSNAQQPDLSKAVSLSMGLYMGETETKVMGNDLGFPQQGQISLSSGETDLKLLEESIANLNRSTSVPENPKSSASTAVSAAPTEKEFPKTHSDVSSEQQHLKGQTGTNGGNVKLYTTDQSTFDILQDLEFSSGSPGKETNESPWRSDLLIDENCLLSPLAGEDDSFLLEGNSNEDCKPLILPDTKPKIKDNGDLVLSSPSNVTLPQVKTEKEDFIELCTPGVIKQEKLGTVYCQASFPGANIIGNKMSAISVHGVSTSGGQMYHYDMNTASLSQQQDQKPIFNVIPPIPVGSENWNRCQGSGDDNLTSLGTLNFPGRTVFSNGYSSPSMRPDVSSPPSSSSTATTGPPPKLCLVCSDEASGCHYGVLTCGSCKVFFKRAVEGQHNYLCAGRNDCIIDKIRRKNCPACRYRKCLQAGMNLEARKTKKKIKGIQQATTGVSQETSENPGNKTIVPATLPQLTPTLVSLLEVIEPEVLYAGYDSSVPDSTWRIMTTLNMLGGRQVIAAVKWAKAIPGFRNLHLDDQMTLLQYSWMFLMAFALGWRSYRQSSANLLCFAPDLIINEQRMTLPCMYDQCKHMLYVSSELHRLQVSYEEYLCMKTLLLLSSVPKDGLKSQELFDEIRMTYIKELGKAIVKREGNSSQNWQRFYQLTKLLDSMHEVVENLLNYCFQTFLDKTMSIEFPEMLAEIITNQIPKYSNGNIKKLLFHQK
Assay: Antagonist activity at glucocorticoid receptor in human A549 cells assessed as inhibition of corticoid-induced GRE-linked luciferase reporter gene activity
pIC50: −log10 of the molar value.
Reported endpoint: pIC50

CN(C)c1ccc([C@H]2C[C@@]3(C)[C@@H](CC[C@@]3(O)C#CC3CC3)[C@@H]3OCC4=CC(=O)CCC4=C32)cc1 = 7.48
CN(C)c1ccc([C@H]2C[C@@]3(C)[C@@H](CC[C@@]3(O)C#CC(F)(F)F)[C@@H]3OCC4=CC(=O)CCC4=C32)cc1 = 7.26

I: CC#C[C@]1(O)CC[C@H]2[C@@H]3OCC4=CC(=O)CCC4=C3[C@@H](c3ccc(N(C)C)cc3)C[C@@]21C
II: C#C[C@]1(O)CC[C@H]2[C@@H]3OCC4=CC(=O)CCC4=C3[C@@H](c3ccc(N(C)C)cc3)C[C@@]21C
Between I and II , whose measured pIC50 reads higher? // return label of chosen record
I
(I: 7.06, II: 6.69)

###

Target: Progesterone receptor (Homo sapiens, UniProt P06401)
Sequence (P06401 whole entry): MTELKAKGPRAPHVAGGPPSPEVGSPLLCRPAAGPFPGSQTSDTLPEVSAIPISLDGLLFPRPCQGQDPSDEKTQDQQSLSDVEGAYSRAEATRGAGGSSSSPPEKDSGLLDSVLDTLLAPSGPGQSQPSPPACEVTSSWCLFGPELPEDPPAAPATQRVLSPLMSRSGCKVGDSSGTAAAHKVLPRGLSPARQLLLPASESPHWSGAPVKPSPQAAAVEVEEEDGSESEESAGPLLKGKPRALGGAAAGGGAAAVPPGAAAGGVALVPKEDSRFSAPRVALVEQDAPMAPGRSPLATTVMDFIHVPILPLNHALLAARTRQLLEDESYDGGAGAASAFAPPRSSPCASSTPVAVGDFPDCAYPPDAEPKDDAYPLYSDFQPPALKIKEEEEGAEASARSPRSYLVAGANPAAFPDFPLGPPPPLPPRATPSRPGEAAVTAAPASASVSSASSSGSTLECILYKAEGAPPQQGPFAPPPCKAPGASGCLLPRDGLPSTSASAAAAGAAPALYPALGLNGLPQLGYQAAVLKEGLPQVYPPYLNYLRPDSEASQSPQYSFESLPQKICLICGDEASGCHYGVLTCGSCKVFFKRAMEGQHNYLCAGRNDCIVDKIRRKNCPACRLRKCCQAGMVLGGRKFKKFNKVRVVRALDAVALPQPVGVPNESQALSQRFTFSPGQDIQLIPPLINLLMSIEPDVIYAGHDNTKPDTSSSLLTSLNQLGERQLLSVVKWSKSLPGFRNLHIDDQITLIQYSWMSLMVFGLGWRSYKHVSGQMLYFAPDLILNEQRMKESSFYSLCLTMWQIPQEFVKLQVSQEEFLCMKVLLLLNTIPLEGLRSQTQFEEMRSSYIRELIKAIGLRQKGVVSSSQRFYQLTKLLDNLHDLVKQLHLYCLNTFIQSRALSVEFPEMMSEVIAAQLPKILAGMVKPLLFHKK
Assay: Antagonist activity at progesterone receptor in human T47D cells assessed as inhibition of progesterone-induced alkaline phosphatase activity
Reported endpoint: IC50 (nM)

CN(C)c1ccc([C@H]2C[C@@]3(C)[C@@H](CC[C@@]3(O)C#Cc3ccccc3)[C@@H]3OCC4=CC(=O)CCC4=C32)cc1 = 1.4
CN(C)c1ccc([C@H]2C[C@@]3(C)[C@@H](CC[C@@]3(O)C#CC3CC3)[C@@H]3OCC4=CC(=O)CCC4=C32)cc1 = 9.6
CN(C)c1ccc([C@H]2C[C@@]3(C)[C@@H](CC[C@@]3(O)C#CC(C)(C)C)[C@@H]3OCC4=CC(=O)CCC4=C32)cc1 = 185

A: CC#C[C@]1(O)CC[C@H]2[C@@H]3OCC4=CC(=O)CCC4=C3[C@@H](c3ccc(N(C)C)cc3)C[C@@]21C
B: C#C[C@]1(O)CC[C@H]2[C@@H]3OCC4=CC(=O)CCC4=C3[C@@H](c3ccc(N(C)C)cc3)C[C@@]21C
Kindly compare A with B and tell me which has the lower IC50 figure. // return label of chosen record
A
